target: Nuclear receptor coactivator 1 (Homo sapiens) (UniProt Q15788); test: SRC1 (NCOA1) coactivator inhibitors, dose response, cell-based, luciferase reporter, luminescence (AID 602235);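 further: cells transfected with pGL4.31 reporter plus pBIND-SRC1 vector; potency is for inhibitors that lower SRC1 reporter luminescence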
Sequence (Q15788 whole entry, looked up): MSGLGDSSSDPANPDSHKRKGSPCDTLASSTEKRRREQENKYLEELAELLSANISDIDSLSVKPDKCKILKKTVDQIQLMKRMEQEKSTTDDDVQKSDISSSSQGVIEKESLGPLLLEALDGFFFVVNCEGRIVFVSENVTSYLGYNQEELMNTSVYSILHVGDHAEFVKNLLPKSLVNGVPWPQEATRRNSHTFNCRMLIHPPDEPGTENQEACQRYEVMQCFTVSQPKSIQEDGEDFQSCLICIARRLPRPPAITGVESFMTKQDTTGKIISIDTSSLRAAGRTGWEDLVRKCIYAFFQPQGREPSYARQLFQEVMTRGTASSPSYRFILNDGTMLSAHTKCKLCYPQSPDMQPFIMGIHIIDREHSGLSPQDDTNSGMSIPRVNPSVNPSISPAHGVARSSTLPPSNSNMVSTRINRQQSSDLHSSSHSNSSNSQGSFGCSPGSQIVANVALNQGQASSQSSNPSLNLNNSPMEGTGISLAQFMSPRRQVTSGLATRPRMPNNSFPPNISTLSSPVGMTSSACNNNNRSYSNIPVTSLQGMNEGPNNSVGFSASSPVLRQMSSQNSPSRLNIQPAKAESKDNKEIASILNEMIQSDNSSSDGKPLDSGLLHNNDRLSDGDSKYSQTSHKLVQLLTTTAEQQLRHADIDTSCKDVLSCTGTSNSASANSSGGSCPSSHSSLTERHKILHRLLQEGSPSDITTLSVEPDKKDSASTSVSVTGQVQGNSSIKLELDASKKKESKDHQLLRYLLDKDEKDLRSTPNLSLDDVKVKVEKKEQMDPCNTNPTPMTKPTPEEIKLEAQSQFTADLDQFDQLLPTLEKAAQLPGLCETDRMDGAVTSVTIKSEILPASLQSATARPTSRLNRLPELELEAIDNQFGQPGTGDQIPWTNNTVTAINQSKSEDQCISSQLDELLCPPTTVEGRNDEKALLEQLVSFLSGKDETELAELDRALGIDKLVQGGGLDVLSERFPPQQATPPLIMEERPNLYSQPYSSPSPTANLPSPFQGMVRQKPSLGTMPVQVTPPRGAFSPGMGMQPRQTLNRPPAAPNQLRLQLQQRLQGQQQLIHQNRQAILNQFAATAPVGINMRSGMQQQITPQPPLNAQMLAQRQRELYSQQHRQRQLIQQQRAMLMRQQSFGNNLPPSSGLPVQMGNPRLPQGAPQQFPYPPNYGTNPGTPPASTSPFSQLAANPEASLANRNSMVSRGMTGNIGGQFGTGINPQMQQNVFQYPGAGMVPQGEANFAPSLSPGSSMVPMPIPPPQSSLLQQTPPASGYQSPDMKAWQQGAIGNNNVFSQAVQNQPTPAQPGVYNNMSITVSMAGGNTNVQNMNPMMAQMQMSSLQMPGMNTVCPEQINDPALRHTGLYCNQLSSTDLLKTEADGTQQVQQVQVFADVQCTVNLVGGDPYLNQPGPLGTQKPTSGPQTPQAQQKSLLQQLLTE
Active and inactive are the calls of the source. How the calls were made is not given here.
testReadout: IC50

Consider the following illustrative entries.
compound	studyTarget	testReadout	assayValue
Cc1ccc(NC(=O)NC2CC(=O)N(c3ccc4c(c3)OCCO4)C2)cc1C (stereo unspecified)	Nuclear receptor coactivator 1 (Homo sapiens) (UniProt Q15788)	IC50	6 µM
Cc1ccc(S(=O)(=O)Nc2c(NC3CCCCC3)c3ccccc3oc2=O)c(C)c1	Nuclear receptor coactivator 1 (Homo sapiens) (UniProt Q15788)	IC50	> 35.9 µM (inactive)
COc1ccc(Oc2nc3c(c(=O)n(C)c(=O)n3C)n2C)cc1	Nuclear receptor coactivator 1 (Homo sapiens) (UniProt Q15788)	IC50	inactive
CC(C)(C)NC(=O)C1(C)CCC(=O)N1CCCn1ccnc1 (stereo unspecified)	Nuclear receptor coactivator 1 (Homo sapiens) (UniProt Q15788)	IC50	inactive
N#Cc1c(-c2ccccc2)c(C#N)c2nc3ccccc3n2c1N	Nuclear receptor coactivator 1 (Homo sapiens) (UniProt Q15788)	IC50	> 35.9 µM (inactive)

What value of IC50 has been recorded for this entry: CCN(C(=O)c1cccc(S(=O)(=O)N(C)C)c1)C12CC3CC(CC(C3)C1)C2
> 35.9 µM (inactive)

What value of IC50 has been recorded for this entry: Fc1cccc(CSc2nnc3ccc(-c4ccncc4)nn23)c1
> 35.8 µM (inactive)

What value of IC50 has been recorded for this entry: COC(=O)c1sc2cnccc2c1N
inactive

What value of IC50 has been recorded for this entry: NS(=O)(=O)c1ccc(Nc2nc(-c3cccnc3)cs2)cc1
> 35.8 µM (inactive)

What value of IC50 has been recorded for this entry: OCCN1CCN(C(=S)c2ccc(-c3ccccc3)cc2)CC1
> 35.9 µM (inactive)

What value of IC50 has been recorded for this entry: O=C(c1ccncc1)N(Cc1cc2ccccc2[nH]c1=O)C1CCCCC1
inactive

What value of IC50 has been recorded for this entry: CCOc1ccc(/C=C2\SC(=S)N(CCC(=O)O)C2=O)cc1
> 35.9 µM (inactive)

What value of IC50 has been recorded for this entry: COC(=O)c1cccc2c1-c1ccccc1/C2=N/O
9.71 µM

What value of IC50 has been recorded for this entry: CC1CC(C)C(=NNC(N)=O)C(C(O)CC2CCC(=O)NC2=O)C1 (stereo unspecified)
8.57 µM

What value of IC50 has been recorded for this entry: Cc1ccc(/C=C2\SC(=S)N(CCCC(=O)NC3CCCC3)C2=O)cc1
3.37 µM

What value of IC50 has been recorded for this entry: CC[C@@]1(O)C(=O)OCc2c1cc1n(c2=O)Cc2cc3c(NC(=O)CN)cccc3nc2-1
> 35.9 µM (inactive)

What value of IC50 has been recorded for this entry: Cc1ccc2occ(/C=N/NC(=O)[C@@H](N)Cc3ccccc3)c(=O)c2c1
8.08 µM

What value of IC50 has been recorded for this entry: c1cnc2ccc(-n3ccnc3)cc2c1
> 35.9 µM (inactive)

What value of IC50 has been recorded for this entry: O=C(O)c1ccccc1-c1c2cc(I)c(=O)c(I)c-2oc2c(I)c(O)c(I)cc12
> 35.9 µM (inactive)

###

target: Nuclear receptor coactivator 1 (Homo sapiens); assay: SRC1 (NCOA1) coactivator inhibitors, dose response, cell-based, luciferase reporter, luminescence (AID 602235)
Active and inactive are the calls of the source. No rule for the calls is given here.
testReadout: IC50

Consider the following illustrative entries.
compound	testReadout	assayValue
Cc1ccc(S(=O)(=O)N2[C@@H](c3ccc(C(C)(C)C)cc3)C(C(=O)O)=CC[C@H]2c2ccc(Cl)cc2)cc1	IC50	inactive
C=CCNc1ncnc2ccc(Br)cc12	IC50	6.79 µM
C=CCn1c(Oc2ccccc2F)nc2c1c(=O)n(C)c(=O)n2C	IC50	inactive
COc1ccc(-n2cnc(N)c2C(=O)c2cccc([N+](=O)[O-])c2)cc1	IC50	inactive
CC(C)n1c(SCC(=O)Nc2nc3c(s2)CCCC3)nc2c1c(=O)n(C)c(=O)n2C	IC50	inactive

# query: IC50 | item CN1CCN(c2cccc3c2C(=O)c2ccccc2C3=O)CC1 | system: Nuclear receptor coactivator 1 (Homo sapiens)
> 35.9 µM (inactive)

# query: IC50 | item Nc1ccn([C@@H]2O[C@H](CO)[C@@H](O)C2O)c(=O)n1 (stereo partly drawn) | system: Nuclear receptor coactivator 1 (Homo sapiens)
inactive

# query: IC50 | item O=C(O)CN1C(=O)/C(=C\c2ccccc2OCc2ccc(Cl)cc2Cl)SC1=S | system: Nuclear receptor coactivator 1 (Homo sapiens)
inactive

# query: IC50 | item O=C1CCC2S/C(=C/Nc3ccc(C(F)(F)F)cc3)C(=O)N12 (stereo not drawn) | system: Nuclear receptor coactivator 1 (Homo sapiens)
> 35.9 µM (inactive)

# query: IC50 | item Cc1ccc(O)c(C(=O)c2cnn(C(=O)COc3ccc(Cl)cc3)c2)c1 | system: Nuclear receptor coactivator 1 (Homo sapiens)
inactive

# query: IC50 | item Cc1ccc(NC(=O)CCC(=O)N/N=C/c2ccc(O)cc2O)cc1 | system: Nuclear receptor coactivator 1 (Homo sapiens)
inactive

# query: IC50 | item CN(CC(=O)Nc1ccc(Cl)c(C(F)(F)F)c1)C(=O)C1CC(=O)N(c2ccc3c(c2)OCCO3)C1 (stereo not drawn) | system: Nuclear receptor coactivator 1 (Homo sapiens)
inactive

###

target: Nuclear receptor coactivator 1 (Homo sapiens); experiment: SRC1 (NCOA1) coactivator inhibitors, dose response, cell-based, luciferase reporter, luminescence (AID 602235)
Active and inactive are the calls of the source. No rule for the calls is given here.
testReadout: IC50

Consider the following illustrative entries.
CCOC(=O)CSc1cc(-c2ccccc2)nc2ncnn12 > 35.9 µM (inactive)
N#Cc1cc2ccncc2c2ccccc12 > 35.9 µM (inactive)
COc1cccc(NC(=O)CN(C)CC(=O)Nc2ccc(Cl)cc2[N+](=O)[O-])c1 inactive
Cc1ccc(OCC(=O)c2cc(C)n(Cc3cccs3)c2C)c([N+](=O)[O-])n1 > 35.9 µM (inactive)
CCn1ccnc1CN(C)Cc1cn[nH]c1-c1ccc(F)cc1F inactive

What value of IC50 has been recorded for this entry: CC(C)n1c(-c2cccnc2)nc2cnccc21
inactive

###

molecular target: Nuclear receptor coactivator 1 (Homo sapiens) (UniProt Q15788); experiment: SRC1 (NCOA1) coactivator inhibitors, dose response, cell-based, luciferase reporter, luminescence (AID 602235);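 further: cells transfected with pGL4.31 reporter plus pBIND-SRC1 vector; potency is for inhibitors that lower SRC1 reporter luminescence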
The source made the active and inactive calls. No rule for the calls is given here.
# output must be one of TRUE for active, FALSE for inactive

A selection of reference data follows.
molecule	label
COc1ccccc1CNC(=O)C(=O)NCCC1CCCCN1S(=O)(=O)c1ccc(C)cc1 (centres undefined)	FALSE
Cc1ccc(N=c2c([N+](=O)[O-])nn(-c3ccc4c(c3)OCCO4)n2O)cc1F	FALSE
NNC(=O)c1cc2ccccc2cc1O	TRUE

Continue with the next molecule.
I would be grateful if you could indicate the recorded call for COc1cccc(CNc2ncnc3ccc(-c4c(C)noc4C)cc23)c1 .
FALSE

###

target: UniProt Q15788; test: SRC1 (NCOA1) coactivator inhibitors, dose response, cell-based, luciferase reporter, luminescence (AID 602235);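 further: cells transfected with pGL4.31 reporter plus pBIND-SRC1 vector; potency is for inhibitors that lower SRC1 reporter luminescence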
Active and inactive are the calls of the source. The rule behind the calls is not given here.
# output must be one of label 1 for active, label 0 for inactive

compound	label
CCn1c(Oc2cccc(Br)c2)nc2c1c(=O)n(C)c(=O)n2C	label 0
CC(=O)c1cccc(NC(=O)COc2cc3oc(=O)c(CC(C)O)c(C)c3cc2Cl)c1 (stereo not given)	label 0
COc1ccc(Cc2nnc(SCc3ccc([N+](=O)[O-])cc3)o2)cc1	label 0
Cn1nc(C(F)(F)F)c(C#N)c1N1CCN(c2ccc(F)cc2)CC1	label 1
COc1ccc(-c2ncncc2-c2ccccc2)c(O)c1	label 0

Continue with the next compound.
I would be grateful if you could indicate the recorded call for CC(=O)/C(N=Nc1ccc2c(c1)OCCO2)=C(\C)O .
label 0

###

biological target: Nuclear receptor coactivator 1 (Homo sapiens) (UniProt Q15788); test: SRC1 (NCOA1) coactivator inhibitors, dose response, cell-based, luciferase reporter, luminescence (AID 602235);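 further: cells transfected with pGL4.31 reporter plus pBIND-SRC1 vector; potency is for inhibitors that lower SRC1 reporter luminescence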
The source made the active and inactive calls. The rule behind the calls is not given here.
# output must be one of active, inactive

compound	label
COc1ccc(-c2cc(=O)oc3c(C)c(O)c(CN(C)C)cc23)cc1	inactive
CCN(c1ccccc1)S(=O)(=O)c1cc(C(=O)Nc2ccc(Br)cc2)ccc1F	inactive

I would be grateful if you could indicate the recorded call for COc1cccc(/C=N/NC(=O)CNC(=O)C2COc3ccccc3O2)c1O (stereo unspecified) .
inactive

I would be grateful if you could indicate the recorded call for Cc1ccc(N(Cc2cc(=O)[nH]c3ccccc23)C(=O)CCl)c(C)c1 .
active

I would be grateful if you could indicate the recorded call for S=C(c1ccc(-c2ccccc2)cc1)N1CCOCC1 .
inactive

I would be grateful if you could indicate the recorded call for CN(Cc1cnc2nc(N)nc(N)c2n1)c1ccc(C(=O)NC(CCC(=O)O)C(=O)O)c2ccccc12 (stereo unspecified) .
inactive
